Target: Serine/threonine-protein kinase Nek6 (Homo sapiens);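 note: values are mean inhibition of NEK6 from the GSK PKIS screen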
Conditions: at 1 µM
QUANTITY KIND: inhibition

Entry under review: COc1ccc(-c2nn3ncccc3c2-c2ccnc(Nc3ccc(F)c(F)c3)n2)cc1 . Reported inhibition? 5.18%

Entry to check: CCOc1ccc2c(-c3ccnc(Nc4cc(OC)cc(C(F)(F)F)c4)n3)cnn2n1 1.7%

Same question, COc1cc(N2CCN(C(C)C)CC2)ccc1Nc1nc(Nc2cccc(F)c2C(=O)O)c2cc[nH]c2n1 this time 5.14%

Request: CN(C)CCNC(=O)Nc1ccc(N(C)c2ccnc(Nc3ccc(CS(C)(=O)=O)cc3)n2)cc1 3.93%

Try this compound next: FC(F)(F)CNc1nccc(-c2cnn3ncccc23)n1 0.6%

Lookup COc1ccc(Nc2ncc(-c3ccccc3)o2)cc1OC -2.42%

Now the same for CC(C)c1ccc(-c2cc(-c3c[nH]nc3-c3ccccn3)ccn2)cc1 -0.92%

What about this compound? Cc1ccc(-c2cc3c(NC(=O)C4CC4)ncnc3o2)cc1 0.29%

Ok, now NS(=O)(=O)c1cccc(N/C=C2\C(=O)Nc3ccccc32)c1 1.95%

Repeat with CC1=C(C(=O)Nc2ccc3[nH]ncc3c2)C(c2ccc(F)cc2)N=C(c2ccc(C(F)(F)F)nc2)N1 (stereo not given) -0.45%

###

Target: Tyrosine-protein kinase Lyn (Homo sapiens) (UniProt P07948);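 note: kinase tested as its LYN B splice variant, values given as mean percent inhibition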
Sequence (P07948 2-512 limits assumed): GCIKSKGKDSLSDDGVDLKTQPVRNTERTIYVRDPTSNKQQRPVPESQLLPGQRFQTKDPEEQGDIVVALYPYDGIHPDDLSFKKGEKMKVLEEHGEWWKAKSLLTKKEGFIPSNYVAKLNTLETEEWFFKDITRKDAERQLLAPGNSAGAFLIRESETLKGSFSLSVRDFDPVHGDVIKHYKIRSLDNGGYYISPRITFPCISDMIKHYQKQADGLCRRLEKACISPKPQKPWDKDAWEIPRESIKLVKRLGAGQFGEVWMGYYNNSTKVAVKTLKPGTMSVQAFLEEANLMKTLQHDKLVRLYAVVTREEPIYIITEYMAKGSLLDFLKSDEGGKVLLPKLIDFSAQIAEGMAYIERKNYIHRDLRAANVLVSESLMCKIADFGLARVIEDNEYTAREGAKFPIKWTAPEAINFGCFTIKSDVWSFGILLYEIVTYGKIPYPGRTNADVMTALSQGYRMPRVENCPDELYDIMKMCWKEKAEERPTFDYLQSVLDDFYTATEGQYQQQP
Conditions: at 1 µM
Description: GSK_PKIS: LYN B (splice variant) mean inhibition at 1 uM [Nanosyn]
QUANTITY KIND: inhibition
Include the unit after the number when you answer.

# inhibition lookup, item COc1cccc(Nc2nccc(-c3cnn4ncccc34)n2)c1 11.3%

// same read-out, input: COc1cccc(-n2ncc3c(N/N=C/c4ccc(C(=O)NCCN(C)C)cc4)ncnc32)c1 86.3%

Same thing, different compound: Cc1cc(O)cc(C)c1/C=C/c1cncc(C(N)=O)c1 57%

How about this compound: COc1cc2c(cc1Nc1nc(Nc3cccc(F)c3C(N)=O)c3cc[nH]c3n1)N(C(=O)CN1CCN(C(C)C)CC1)CC2 -0.54%

Also, COC(=O)Nc1nc2cc(Oc3ccc(NC(=O)Nc4ccccc4)cc3)ccc2[nH]1 please. 6.73%

One more compound: COc1ccc(Nc2ncc(-c3ccccc3)o2)cc1OC 32.9%

Can you handle CNC(=O)c1sc(-n2cnc3cc(OC)c(OC)cc32)cc1OCc1ccccc1C(F)(F)F next? 7.2%

Same thing, different compound: NC(=O)c1ccc2c(-c3ccnc(NCCCO)n3)c(-c3ccc(F)cc3)nn2c1 10.6%

Consider next the compound CCS(=O)(=O)c1ccc(OC)c(Nc2ncc(-c3cccc(C(C)=O)c3)o2)c1 in the same way. 40.8%

Do the same for CCOc1ccc2c(-c3ccnc(Nc4cc(OC)cc(C(F)(F)F)c4)n3)cnn2n1 please 4.08%

// query: CN(c1ccc(NC(=O)NCCN2CCOCC2)cc1)c1ccnc(Nc2ccc(CS(C)(=O)=O)cc2)n1 13.6%

Further, for CS(=O)(=O)Nc1ccc(-c2cc(-c3ccccc3)cc(C(N)=O)c2N)cc1 ? 0.8%

Moving on to COc1cc(N2CCN(C(C)C)CC2)ccc1Nc1nc(Nc2cccc(F)c2C(=O)O)c2cc[nH]c2n1 6.2%

Follow-up entry: c1cnn2ncc(-c3ccnc(NCCCN4CCOCC4)n3)c2c1 0.53%

Follow-up item: NS(=O)(=O)c1ccc(N/N=C2\C(=O)Nc3cccc(CCc4ccncc4)c32)cc1 5.45%

Now consider CCN1CCC(C(=O)Nc2n[nH]c3nnc(-c4cccc(F)c4F)cc23)CC1 . 0.66%

// query: c1ccc(-c2n[nH]cc2-c2ccnc(-c3ccc(OCCn4ccnc4)cc3)c2)nc1 12.3%

Consider next the compound OCCCNc1nccc(-c2c(-c3ccc(F)cc3)nn3cc(C(F)(F)F)ccc23)n1 in the same way. 4.51%

Proceed to CCn1c(-c2nonc2N)nc2cncc(C(=O)NCCNC)c21 4.46%

Item: CC1(C)CC(n2cnc(-c3ccc(F)cc3)c2-c2ccnc(N)n2)CC(C)(C)N1 0.86%

Now consider Fc1cccc(COc2ccc(Nc3ncncc3C#Cc3ccccc3)cc2Cl)c1 and answer again. 7.49%

Repeat for the following compound: CCCNc1cccc(-n2ncc3c(N/N=C/c4ccncc4)ncnc32)c1 64.8%

Input Cc1nnc(-c2cccc(-c3ccc(C(=O)NCC4CC4)cc3)c2)o1 5.48%

Next compound up: CS(=O)(=O)CCNCc1ccoc1-c1ccc2ncnc(Nc3ccc(OCc4ccccc4)cc3)c2c1 4.32%

// next record NS(=O)(=O)c1ccc(N/N=C2\C(=O)Nc3ccc(C(=O)NCc4ccncc4)cc32)cc1 14.7%

How about this compound: COc1cc(Nc2ncc(-c3ccccc3)o2)cc(OC)c1 22.1%

N#Cc1ccc2c(-c3ccnc(NC4CC4)n3)c(-c3ccc(F)cc3)nn2c1 ? 1.81%

Could you do the same for CN1CCC(n2cnc(-c3ccc(F)cc3)c2-c2ccnc(NCCO)n2)CC1 , please? 5.79%

Next compound: Fc1ccc(Nc2nccc(-c3c(-c4ccc(C(F)(F)F)cc4)nn4ncccc34)n2)cc1F 0.38%

Repeat for the following compound: CS(=O)(=O)Nc1ccc(-c2ccc3c(NC(=O)C4CC4)n[nH]c3c2)cc1 3.58%

Ok, now CN(C)CCNC(=O)Nc1ccc(N(C)c2ccnc(Nc3ccc(CS(C)(=O)=O)cc3)n2)cc1 7.59%
